test system: Aedes aegypti neuropeptide Y-like receptor 7 (NPYLR7); test: agonists of mosquito NPYLR7 receptor, primary screen, cell-based, Aedes aegypti, calcium fluorescence, mosquito biting behavior (AID 1259423); conditions: HEK293T NPYLR7/Galpha15, GCaMP6s calcium fluorescence; measured here: Max-Min RFU normalised activation; at 10 µM; stronger effect = higher value;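 note: 0% = vehicle and 100% = reference agonist at the receptor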
The campaign covered roughly 270,000 compounds. About 410 (0.15%) were called active. For the sample, actives were picked, then their nearest neighbours and some compounds at random.

molecule: COc1ccc(N2C(=O)/C(=C\c3ccc(N(C)C)cc3)SC2=S)cc1
activation / %: -7.36
//
molecule: CN1CCOC(CCNC(=O)CCC(=O)N2CCCCCC2)C1 (stereo not drawn)
activation / %: -0.93
//
molecule: O=C(O)c1[nH]ncc1CN1CCc2onc(-c3ccc(C(F)(F)F)cc3)c2C1
activation / %: 41.2
//
molecule: COc1cc(C(=O)N2CCOC(c3ccccc3)C2)cc(OC)c1C (stereo not drawn)
activation / %: 58.9
//
molecule: COc1ccc(C)c2sc(N(Cc3ccccc3)C(=O)c3ccc([N+](=O)[O-])o3)nc12
activation / %: 0.795
//
molecule: NC(=O)CN1C(=O)COc2ccccc21
activation / %: -26.8
//
molecule: CC1CN(C(=O)NCC(C)N(C)c2ccccc2)CC(C)O1 (stereo not drawn)
activation / %: 1.94
//
molecule: CCOc1nc(-c2ccc(C(F)(F)F)cc2)n(-c2ccc(NCC(O)COCc3ccccc3)cc2)n1 (stereo not drawn)
activation / %: 4.92
//
molecule: Cc1c(C(=O)NCc2ccc(C#N)cc2)sc(=O)n1Cc1ccc(C(=O)N(C)C)cc1
activation / %: -0.426
//
molecule: COc1cc(C=C2C=c3c(O)cccc3=C2O)cc(Cl)c1O
activation / %: 183
//
molecule: O=C(NC1C=CS(=O)(=O)C1)c1cccc2ccnn12 (stereo not drawn)
activation / %: 9.91
//
molecule: O=C(c1ccc(-n2cnnn2)cc1)N1CCCC(N2CCCC2)C1 (stereo not drawn)
activation / %: 2.39
//
molecule: COc1ccc(CN(CC(O)COCC(C)C)CC2CCCO2)cc1OC (stereo not drawn)
activation / %: 13.2
//
molecule: N#CCc1nc2ncc(Br)cc2[nH]1
activation / %: -5.31
//
molecule: Cn1cc(NC(=O)Nc2cccc(N3CCCCCC3)c2)cn1
activation / %: 3.07
//
molecule: COc1ccc2cc(C3CN(C(=O)c4ccc[nH]4)CCO3)ccc2c1 (stereo not drawn)
activation / %: -7.4
//
molecule: Cc1csc(=O)n1CCC(=O)OC(C)C(N)=O (stereo not drawn)
activation / %: 0.428
//
molecule: CC(=O)Oc1ccc(Cn2c(C)c(C(=O)NCc3ccc(C#N)cc3)sc2=O)cc1
activation / %: 43.3
//
molecule: O=C(O)c1[nH]ncc1CN1CCCC(c2[nH]ncc2Cc2ccccc2)C1 (stereo not drawn)
activation / %: 3.74
//
molecule: COc1cccc(/C=C2\Oc3c(ccc4c3CN(Cc3ccncc3)CO4)C2=O)c1
activation / %: 55.3
//
molecule: c1ccc(Nc2nc(-c3ccco3)nc3ccccc23)cc1
activation / %: 4.58
//
molecule: Cc1c(-c2ccccc2)c(=O)oc2c3c(ccc12)OCN(Cc1cccnc1)C3
activation / %: -15.9
//
molecule: CCOc1ccc(/C=C(\C#N)c2[nH]nc(N)c2C#N)cc1OCC
activation / %: -4
